test: Cytotoxicity; format: cell-based; settings: read-out: cell toxicity IC50
experimental.readout: IC50

What does the data say about its IC50? Entry: COc1ccc(N2CCN(C(=O)ON3C(=O)C4CN(CC5CCN(Cc6ccccc6)CC5)CCN4C3=O)CC2)cc1 (stereo not shown) [ABC44]
> 50 µM
